log10 MIC values for the molecules below.
- Tested on: Staphylococcus aureus
- PROCEDURE_SUMMARY: Antibacterial activity against methicillin-resistant Staphylococcus aureus NRS77 measured after overnight incubation by broth double-dilution method
- Format: functional
Please note: log10 values; quantity MIC; unit mg/L.

O=c1c2ccccc2sn1-c1ccccn1    1.19
C#Cc1ccc(-n2sc3ccccc3c2=O)cc1    0.59
O=c1c2ccccc2sn1C1CCCCCC1    0.30

input: Please respond with reported log10 MIC (system Staphylococcus aureus) for Cc1cc(C)cc(-n2sc3ccccc3c2=O)c1 .
output: 0.89

input: Please respond with reported log10 MIC (system Staphylococcus aureus) for CCCCCn1sc2ccccc2c1=O .
output: 0.30

input: Please respond with reported log10 MIC (system Staphylococcus aureus) for CC(C)Cn1sc2ccccc2c1=O .
output: 0.89

input: Please respond with reported log10 MIC (system Staphylococcus aureus) for CC(C)(C)n1sc2ccccc2c1=O .
output: 1.19

input: Please respond with reported log10 MIC (system Staphylococcus aureus) for O=c1c2ccccc2sn1CCCc1ccccc1 .
output: 0.30

input: Please respond with reported log10 MIC (system Staphylococcus aureus) for CC(C)c1ccc(-n2sc3ccccc3c2=O)cc1 .
output: 0.00

input: Please respond with reported log10 MIC (system Staphylococcus aureus) for O=c1c2ccccc2sn1C1CCCCC1 .
output: 0.59

input: Please respond with reported log10 MIC (system Staphylococcus aureus) for O=c1c2ccccc2[se]n1-c1ccccc1 .
output: 0.59

input: Please respond with reported log10 MIC (system Staphylococcus aureus) for COc1cc(OC)cc(-n2sc3ccccc3c2=O)c1 .
output: 0.30

input: Please respond with reported log10 MIC (system Staphylococcus aureus) for CCCCCCCCCCCCn1sc2ccccc2c1=O .
output: 0.30
